System: Burkholderia cepacia
experimental.details: Antibacterial activity against Burkholderia cepacia 55792 after 16 to 20 hrs by broth microdilution method
Assay type: functional
Entries and their measured MIC follow.
measured.quantity: MIC

[[record]]
compound = "CC(=O)OC(Cc1c[nH]c2ccccc12)C(=O)C(C)C (stereo not given)"
system = "Burkholderia cepacia"
measured_quantity = "MIC"
result = "> 80 µg/mL"

[[record]]
compound = "CC(C)C(O)C(=O)Cc1c[nH]c2ccccc12 (single isomer, unassigned; (+))"
system = "Burkholderia cepacia"
measured_quantity = "MIC"
result = "> 80 µg/mL"

[[record]]
compound = "O=C(O)c1cn(C2CC2)c2cc(N3CCNCC3)c(F)cc2c1=O"
system = "Burkholderia cepacia"
measured_quantity = "MIC"
result = "0.039 µg/mL"

[[record]]
compound = "CC(=O)OC(C(=O)Cc1c[nH]c2ccccc12)C(C)C (stereo not given)"
system = "Burkholderia cepacia"
measured_quantity = "MIC"
result = "> 80 µg/mL"

[[record]]
compound = "CC(C)C(=O)C(O)Cc1c[nH]c2ccccc12 (single isomer, unassigned; (+))"
system = "Burkholderia cepacia"
measured_quantity = "MIC"
result = "> 80 µg/mL"

